experiment_notes: Metabolic stability in porcine liver S9 fraction
Assay type: in vitro ADME
stated_conditions: porcine liver homogenate; 30 min; carboxylesterase 1 inhibitor BNPP 1 mM
Answer each item with its documented stability in the presence of BNNP (percent of parent remaining).
One number for each entry, in %.

Answered cases to consult:
CCOC(=O)C1=C[C@@H](OC(CC)CC)[C@H](NC(C)=O)[C@@H](N)C1 [oseltamivir, reference compound] :: 97
Cc1ccncc1OC(=O)NCCCCCn1ccc2ccc(F)cc21 :: 76
O=C(NCCCCCn1ccc2ccc(F)cc21)Oc1ccccc1 :: 87

Turning now to a further compound:
Reported stability in the presence of BNNP (percent of parent remaining) ( O=C(NCCCCCn1ccc2ccc(F)cc21)Oc1ccc(C(=O)O)cc1 ) = 81
